Attribute: protein stability index
B1: TLE6 (parent)
chain: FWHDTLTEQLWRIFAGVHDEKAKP

Variants of: B1
Assay: protein stability index of a GFP-peptide fusion (GPS, HEK-293T) (PSI 1-6); higher = more stable;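 also: lentivirally expressed fusions sorted by FACS into six bins by GFP to DsRed ratio, PSI derived from sequencing read proportions per bin multiplied by bin number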
Settings: c terminus: a fixed tail appended

Here are 4 variants together with their reported answers.
E20S = 2.41
F1H = 1.96
L6R = 2.53
V17F = 1.69

Determine from records and report protein stability index for W2S 1.62

Determine from records and report protein stability index for L10I 2.09

Determine from records and report protein stability index for V17T 1.33

Determine from records and report protein stability index for Q9M 1.74

Determine from records and report protein stability index for F14S 1.75

Determine from records and report protein stability index for I13C 2.39

Determine from records and report protein stability index for H18P 1.48

Determine from records and report protein stability index for K21I 3.25
